Field: Ki. System: Glutamate receptor ionotropic, NMDA 2B (Rattus norvegicus, UniProt Q00960). Provenance: assorted publications.
A number alone suffices; assume nM.

Reference set (10 entries):
[
  {
    "compound": "COc1ccc(CNC(=N)c2ccc(OC(F)(F)F)cc2)c(OC)c1",
    "reading": 16.2
  },
  {
    "compound": "FC(F)Oc1cc(-n2cc(COc3cncnc3)nn2)ccc1Cl",
    "reading": 1800
  },
  {
    "compound": "NC(=NCc1cc(F)cc(F)c1)c1ccc(OC(F)(F)F)cc1",
    "reading": 3.58
  },
  {
    "compound": "FC(F)Oc1cc(-n2cc(Cn3ccnc3)nn2)ccc1Cl",
    "reading": 35
  },
  {
    "compound": "Fc1cccnc1OCc1cn(C2CCC(Cl)C(OC(F)F)C2)nn1 (centres undefined)",
    "reading": 889
  },
  {
    "compound": "Nc1nc(OCc2cn(-c3ccc(F)c(OC(F)F)c3)nn2)ncc1F",
    "reading": 44
  },
  {
    "compound": "CS(=O)(=O)Nc1ccc(OCC(=O)N2CCN(c3ccc(Cl)c(Cl)c3)CC2)cc1",
    "reading": 817
  },
  {
    "compound": "NC(=NCc1ccccc1C(F)(F)F)c1ccc(OC(F)(F)F)cc1",
    "reading": 8.09
  },
  {
    "compound": "CS(=O)(=O)Nc1ccc2nc(CN3CCC(Cc4ccc(I)cc4)CC3)[nH]c2c1",
    "reading": 5.75
  },
  {
    "compound": "CNc1ccnc(OCc2cn(-c3ccc(F)c(OC(F)F)c3)nn2)n1",
    "reading": 10
  }
]

Query: Ki; subject: Cc1cnc(OCc2cn(-c3cccc(C(F)F)c3)nn2)nc1
65

Also check O=C(CN1CCC(Cc2ccccc2)CC1)c1ccc(O)cc1
141

Also check Oc1ccc2nc(CN3CCC(Cc4ccc(I)cc4)CC3)[nH]c2c1
7.28

Also check Cc1cnc(OCc2cn(-c3ccc(Cl)c(OC(F)F)c3)nn2)nc1
1.3

Also check N=C(NCc1cccc(F)c1)c1ccc(OC(F)(F)F)cc1
2.86

Also check Cc1cnc(OCc2nnn(-c3cccc(C(F)F)c3)c2C)nc1
3500

Also check COc1cc(CN=C(N)c2ccc(OC(F)(F)F)cc2)cc(OC)c1OC
1140

Also check FC(F)Oc1cc(-n2cc(COc3ncccn3)nn2)ccc1Cl
94

Also check CC(C)(O)c1cnc(OCc2cn(-c3ccc(F)c(OC(F)F)c3)nn2)nc1
57

Also check N=C(NCC12C3C4C5C3C1C5C42)c1ccc(OC(F)(F)F)cc1 (centres undefined)
150

Also check C[C@@H](Oc1ncccn1)c1cn(-c2ccc(Cl)c(OC(F)F)c2)nn1
67

Also check COc1cccc(CNC(=N)c2ccc(OC(F)(F)F)cc2)c1OC
303

Also check COc1ccccc1C/N=C(\N)c1ccc(OC(F)(F)F)cc1
2.09

Also check O=C(CN1CCC(Cc2ccc([N+](=O)[O-])cc2)CC1)c1ccc(O)cc1
200

Also check CC(C(O)c1ccc(N)cc1)N1CCC(Cc2ccccc2)CC1 (racemic; erythro)
97
